method: Neutral Red uptake assay (NRA), iSLK.219 cells
Type: cell-based
recorded conditions: human, marked 0.05 μg/mL dox, read-out: CC50 (KSHV-GFP/RFP system)
quantity: CC50 (µM)
Answers are plain numbers, in µM.

So for CCCCCCCCCCCCCCCCOCCCOP(=O)(O)CO[C@H](CO)Cn1ccc(N)nc1=O , the logged CC50 turned out to be 23.8

###

method: in vivo
recorded conditions: male, CD-1, mouse, in vivo, po, 100 mg/kg
quantity: bioavailability (%)
Give bare numbers, in %.

So for CC(C)c1cnn2c(NCc3ccccc3-n3cccn3)nc(OC3CCCNC3)nc12 (stereo not shown) , the logged bioavailability turned out to be 97.7

###

method: Pharmacokinetics in vivo (mean plasma concentrations)
recorded conditions: male, CD-1, mouse, in vivo, po, 100 mg/kg, Mean plasma concentration, mouse 100 mg/kg p.o., sampling time 480 min
quantity: concentration at 480 min (ng/mL)
Give bare numbers, in ng/mL.

So for CC(C)c1cnn2c(NCc3ccccc3-n3cccn3)nc(OC3CCCNC3)nc12 (stereo not shown) , the logged concentration at 480 min turned out to be 43.2

###

method: Caco-2 permeability assay
Assay type: in vitro ADME
recorded conditions: human, efflux ratio, read-out: Caco-2 permeability B→A / A→B
quantity: efflux ratio
Answers are plain numbers.

So for CC(C)c1cnn2c(NCc3ccccc3-n3cccn3)nc(OC3CCCNC3)nc12 (stereo not shown) , the logged efflux ratio turned out to be 1.57

###

method: in vivo
recorded conditions: male, CD-1, mouse, in vivo, po, 100 mg/kg
quantity: Tmax (min)
Numbers only, in min.

So for CC(C)c1cnn2c(NCc3ccccc3-n3cccn3)nc(OC3CCCNC3)nc12 (stereo not shown) [LDC4297] , the logged Tmax turned out to be 30

###

method: in vivo
recorded conditions: male, CD-1, mouse, in vivo, po, 100 mg/kg
quantity: AUC(0-inf) (ng·h/mL)
One number for each entry, in ng·h/mL.

So for CC(C)c1cnn2c(NCc3ccccc3-n3cccn3)nc(OC3CCCNC3)nc12 (stereo not shown) , the logged AUC(0-inf) turned out to be 3620

###

method: Plasma protein binding, mouse
Type: in vitro ADME
recorded conditions: read-out: Plasma protein binding (% bound) mouse (converted)
quantity: fraction unbound
Give bare numbers.

So for CC(C)c1cnn2c(NCc3ccccc3-n3cccn3)nc(OC3CCCNC3)nc12 (stereo not shown) , the logged fraction unbound turned out to be 0.0951

###

method: Neutral Red uptake assay (NRA), uninfected HFFs
Format: cell-based
recorded conditions: human, read-out: CC50 (VZV-GFP system)
quantity: CC50

entry smiles	CC50
CCCCCCCCCCCCCCCCOCCCOP(=O)(O)CO[C@H](CO)Cn1ccc(N)nc1=O	> 10 µM
Nc1nc2c(ncn2COCCO)c(=O)[nH]1	> 100 µM
Nc1ccn(C[C@@H](CO)OCP(=O)(O)O)c(=O)n1	> 100 µM

For the next question, use this molecule.
So for Nc1nc(O)c2ncn(COC(CO)CO)c2n1 , the logged CC50 turned out to be > 100 µM

###

method: Neutral Red uptake assay (NRA), iSLK.219 cells
Type: cell-based
recorded conditions: human, marked 0.5 μg/mL dox, read-out: CC50 (KSHV-GFP/RFP system)
Experimental: The virus recombinants VZV Oka-GFP and rKSHV.219-GFP/RFP were used for the infection of HFFs (VZV) or were continuously passaged in iSLK.219 carrier cells (KSHV), respectively, and cell viability was determined by NRA performed with uninfected HFFs or uninduced iSLK.219 cells, respectively. (A,B) Schematic depiction of the assay systems performed in a 96 well plate format. […] (C) The antiviral activity of the reference drugs was determined with the VZV-GFP system in the 96 well format. […]
quantity: CC50 (µM)
Numbers only, in µM.

So for CCCCCCCCCCCCCCCCOCCCOP(=O)(O)CO[C@H](CO)Cn1ccc(N)nc1=O , the logged CC50 turned out to be 28.2

###

Test system: rKSHV.219-GFP/RFP
method: KSHV-GFP/RFP reporter assay in iSLK.219 cells
Format: cell-based, Kaposi’s sarcoma-associated herpesvirus
recorded conditions: Human gammaherpesvirus 8, read-out: KSHV EC50, iSLK.219, 96 well, induced with 0.5 μg/mL dox
quantity: pEC50
Give bare numbers, as −log10 of the molar value.

entry smiles	pEC50
CCCCCCCCCCCCCCCCOCCCOP(=O)(O)CO[C@H](CO)Cn1ccc(N)nc1=O	6.15

For the next question, use this compound.
I looked up Nc1nc(O)c2ncn(COC(CO)CO)c2n1 and its pEC50 for rKSHV.219-GFP/RFP was 6.70

###

Test system: VZV Oka-GFP
method: microbe, parasite or virus in culture
Type: cell-based, varicella zoster virus
recorded conditions: Human alphaherpesvirus 3, 96 h, read-out: VZV EC50 (first experimental replicate)
Description: The virus recombinants VZV Oka-GFP and rKSHV.219-GFP/RFP were used for the infection of HFFs (virus stock VZV Oka-GFP applied as a cell-bound inoculum as described before) or were continuously passaged in iSLK.219 carrier cells, respectively (Figure 1). The conditions of the GFP/RFP-based assays were adapted to both the 96 well (Figure 1A,B) and 12 well formats, and details including the assessment of antiviral reference drugs are given (Figure 1C,D). […]
Assignment: determine reported EC50 for the given compounds.
Give bare numbers, in nM.

entry smiles	quantity	test result
Nc1ccn(C[C@@H](CO)OCP(=O)(O)O)c(=O)n1	EC50	300

For each of the compounds below, state EC50.
1. CCCCCCCCCCCCCCCCOCCCOP(=O)(O)CO[C@H](CO)Cn1ccc(N)nc1=O
2. Nc1nc(O)c2ncn(COC(CO)CO)c2n1

### Response
1: 70; 2: 1000

###

method: in vivo
recorded conditions: male, CD-1, mouse, in vivo, po, 100 mg/kg
quantity: AUC(0-t) (ng·h/mL)
Give bare numbers, in ng·h/mL.

So for CC(C)c1cnn2c(NCc3ccccc3-n3cccn3)nc(OC3CCCNC3)nc12 (stereo not shown) [LDC4297] , the logged AUC(0-t) turned out to be 3520
